Hey, just so you know, these numbers are from paper PMC7545097.

B1: PBX1_(1-430), wild-type recombinant [human] / PREP1_(1-436), wild-type recombinant (TR-FIA) [not stated] (parent complex)
chain 1: MDEQPRLMHSHAGVGMAGHPGLSQHLQDGAGGTEGEGGRKQDIGDILQQIMTITDQSLDEAQARKHALNCHRMKPALFNVLCEIKEKTVLSIRGAQEEEPTDPQLMRLDNMLLAEGVAGPEKGGGSAAAAAAAAASGGAGSDNSVEHSDYRAKLSQIRQIYHTELEKYEQACNEFTTHVMNLLREQSRTRPISPKEIERMVSIIHRKFSSIQMQLKQSTCEAVMILRSRFLDARRKRRNFNKQATEILNEYFYSHLSNPYPSEEAKEELAKKCGITVSQVSNWFGNKRIRYKKNIGKFQEEANIYAAKTAVTATNVSAHGSQANSPSTPNSAGSSSSFNMSNSGDLFMSVQSLNGDSYQGAQVGANVQSQVDTLRHVISQTGGYSDGLAASQMYSPQGISANGGWQDATTPSSVTSPTEGPGSVHSDTSN
chain 2: MMATQTLSIDSYQDGQQMQVVTELKTEQDPNCSEPDAEGVSPPPVESQTPMDVDKQAIYRHPLFPLLALLFEKCEQSTQGSEGTTSASFDVDIENFVRKQEKEGKPFFCEDPETDNLMVKAIQVLRIHLLELEKVNELCKDFCSRYIACLKTKMNSETLLSGEPGSPYSPVQSQQIQSAITGTISPQGIVVPASALQQGNVAMATVAGGTVYQPVTVVTPQGQVVTQTLSPGTIRIQNSQLQLQLNQDLSILHQDDGSSKNKRGVLPKHATNVMRSWLFQHIGHPYPTEDEKKQIAAQTNLTLLQVNNWFINARRRILQPMLDSSCSETPKTKKKTAQNRPVQRFWPDSIASGVAQPPPSELTMSEGAVVTITTPVNMNVDSLQSLSSDGATLAVQQVMMAGQSEDESVDSTEEDAGALAPAHISGLVLENSDSLQ

variants of: B1; test: TR-FIA; parent: 1; read off a plot
Quick reference: ratio to parent of the listed items.

variant-annotation	ratio to parent
chain 1 L81A	~0.52
chain 1 L77A, chain 1 V80A, chain 1 L81A	~0.34
chain 1 L108A	~0.73

# ratio to parent lookup, item chain 1 I53A
~0.93

# ratio to parent lookup, item chain 1 L77A, chain 1 V80A
~0.42

# ratio to parent lookup, item chain 1 V80A
~0.45

# ratio to parent lookup, item chain 1 L105A, chain 1 L108A, chain 1 L113A
~0.66

# ratio to parent lookup, item chain 1 I84A
~0.56
